target: EhGEF (Entamoeba histolytica); construct: recombinant protein lacking PH domain (EhGEFΔPH), putative GEF domain; experiment: tryptophan fluorescence quenching titration
pKd: −log10 of the molar value.

{"columns": ["Compound", "pKd"],
 "data": [
  ["Nc1nc2c(ncn2[C@@H]2O[C@H](COP(=O)(O)OP(=O)(O)OP(=O)(O)O)[C@@H](O)[C@H]2O)c(=O)[nH]1 [GTP]", 3.53]
]}
